Assay: chemical genetic growth profiling, strain panel (AID 1159580);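 also: tested at 20 µM; growth read once vehicle control cultures reached saturation at 30 °C; 1 = growth at the plate median or of vehicle wells; lower values mean less growth of the strain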
Conditions: S. cerevisiae deletion strains, growth OD, locus YNL298W, strain CLA4, hits give low values
In all, about 5,500 compounds went through this assay and about 2,000 (36%) were called active. Roughly 18% stayed inconclusive and do not appear here. Some of the results follow.
Quantity: normalized growth

Compound	Quantity	Reported
O=C(O)[C@H](O)[C@@](O)(Cc1ccc(O)cc1)C(=O)O	normalized growth	0.987
CC1=CC2C(C(C)C)CCC(C)(O)C2CC1 (stereo not drawn)	normalized growth	0.983
COc1ccc(C(=O)c2ccc(O)cc2)c(O)c1O	normalized growth	0.991

----------
Test: chemical genetic growth profiling, strain panel (AID 1159580)
Settings: S. cerevisiae deletion strains, growth OD, locus YGR252W, strain gcn5
Among all 5,500 compounds or so, about 2,000 (36%) were called active. Roughly 18% stayed inconclusive and do not appear here. Rule as the data show it: active = normalized growth mostly below about 0.91 (no sharp cut-off); inconclusive = no clear call, values can overlap the other calls; inactive = mostly above about 0.92. The list shows a part of the results. Where a SMILES comes first, the peptide text is derived from it. [ ]: non-standard residue; d: D form. Orn = NCCC[CH](N)C(=O)O
Outcomes: t = active, f = inactive

Compound	Label
O=C(O)c1cc(=O)c2cccc(O)c2[nH]1	f
CC1(C)C(=O)[C@@H]2C[C@@]3(O)C4=CC(=O)O[C@@H](c5ccoc5)[C@]4(C)CCC3[C@@](C)(C2=O)[C@H]1CC(=O)O (some centres undefined)	f
CCN(CC)CCNC(=O)c1cc(Cl)c(N)cc1OC	f
O=C(CCBr)N1CCN(C(=O)CCBr)CC1	f
CNC(Cc1c[nH]c2ccccc12)C(=O)O (centres undefined)	f
O=c1c(O)c(-c2ccc(O)c(O)c2)oc2cc(O)ccc12	f
COc1cc2c(cc1OC)[C@@H]1C(=O)c3ccc4c(c3O[C@@H]1CO2)CC(C(C)C)O4 (some centres undefined)	f
NC[C@H]1O[C@H](O[C@H]2C(O[C@@H]3O[C@H](CO)[C@@H](O)[C@H]3O)[C@@H](O)[C@H](N)C[C@@H]2N)[C@H](N)[C@@H](O)[C@@H]1O (some centres undefined)	f
CC(=O)Oc1cccc2c1C(=O)c1c(OC(C)=O)cc(C(=O)O)cc1C2=O	t
O=c1[nH]cnc2c1ncn2C1O[C@H](CO)[C@@H](O)[C@H]1O (some centres undefined)	f
CC(=O)O[C@@H]1CC[C@]2(C)C3CC[C@]4(C)C(=O)CCC4C3CC[C@H]2C1 (some centres undefined)	f
COc1c2c(cc3c1OCO3)C13C=C[C@H](OC)CC1N(C2)CC3O (some centres undefined)	f
COc1cnc(NS(=O)(=O)c2ccc(N)cc2)nc1	f
CC(=O)OCC(=O)[C@@]1(O)CCC2C3CC[C@@H]4C[C@H](OC(C)=O)CC[C@]4(C)C3C(=O)C[C@@]21C (some centres undefined)	f
CCNc1nc(Cl)nc(NCC)n1	f
CC1(C)S[C@@H]2[C@H](NC(=O)Cc3ccccc3)C(=O)N2[C@H]1C(=O)O	f
CC(C)CC1NC(=O)C(CCCN)NC(=O)C(C(C)C)NC(=O)C2CCCN2C(=O)C(Cc2ccccc2)NC(=O)C(CC(C)C)NC(=O)C(CCCN)NC(=O)C(C(C)C)NC(=O)C2CCCN2C(=O)C(Cc2ccccc2)NC1=O (centres undefined) (cyclo(FPV[Orn]LFPV[Orn]L); configuration not given here)	f
OCCN1CCN(CCCN2c3ccccc3Sc3ccc(C(F)(F)F)cc32)CC1	t
O=c1oc2c(O)c(O)cc3c(=O)oc4c(O)c(O)cc1c4c23	t

----------
Assay: chemical genetic growth profiling, strain panel (AID 1159580);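 also: tested at 20 µM; growth read once vehicle control cultures reached saturation at 30 °C; 1 = growth at the plate median or of vehicle wells; lower values mean less growth of the strain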
Conditions: S. cerevisiae deletion strains, growth OD, locus YLR342W, strain FKS1, hits give low values
In all, about 5,500 compounds went through this assay and about 2,000 (36%) were called active. Roughly 18% stayed inconclusive and do not appear here. The list shows a part of the results.

Molecule	normalized growth
CCC1C(=O)OCC1Cc1cncn1C (stereo not drawn)	1.02
CC(=O)[C@@]1(O)CCC2C3CCC4=CC(=O)CC[C@]4(C)C3CC[C@@]21C (stereo partly drawn)	0.989
CC(=O)OCC(=O)[C@@]12OC3(CCCC3)O[C@@H]1CC1C3CCC4=CC(=O)C=C[C@]4(C)[C@@]3(F)[C@@H](O)C[C@@]12C (stereo partly drawn)	1.02
CN1C(=O)CCS(=O)(=O)C1c1ccc(Cl)cc1 (stereo not drawn)	1.01
COC(=O)[C@]1(C)CC[C@]2(C)CC[C@]3(C)C4=CC=C5C(=CC(=O)C(O)=C5C)[C@]4(C)CC[C@@]3(C)[C@@H]2C1	0.59
CCN(CC)CCNC(=O)c1cc(Cl)c(N)cc1OC	0.983
NCCc1cc(O)c(O)cc1O	0.861
COc1cc(-c2oc3cc(O)ccc3c(=O)c2O)ccc1O	0.966
Cc1cc(=O)n(-c2ccccc2)n1C	0.99
COc1cc(/C=C/C(=O)N2CCC=CC2=O)cc(OC)c1OC	0.998
COc1cc(O)cc(OC)c1OC	0.957
CN(C)CCc1c[nH]c2ccc(CS(=O)(=O)N3CCCC3)cc12	1.01
CC(=O)OC[C@H]1O[C@@H](Oc2cc(OC(C)=O)c3c(=O)cc(-c4ccc(OC(C)=O)cc4)oc3c2)[C@H](OC(C)=O)[C@@H](OC(C)=O)[C@@H]1OC(C)=O	0.985
C1CCC(C(CC2CCCCN2)C2CCCCC2)CC1 (stereo not drawn)	0.981
COc1ccc(C(=O)c2ccc(O)cc2)c(O)c1O	0.952
CCCCc1nc(Cl)c(CO)n1Cc1ccc(-c2ccccc2-c2nn[nH]n2)cc1	1.01
CCCCCCCCCCCCCCCCCCOCC(O)CO (stereo not drawn)	0.987
CC(=O)NS(=O)(=O)c1ccc(NC(=O)c2ccccc2C(=O)O)cc1	1.01
CCOc1cccc(C(=O)c2ccc(O)c(O)c2O)c1	0.903
CCOc1ccc(C(=O)c2cc(O)c(OC)c(OC)c2O)cc1	0.995
Cc1ccc(N(CC2=NCCN2)c2cccc(O)c2)cc1	1.02
CC(=O)CC1CCCCN1 (stereo not drawn)	1.02
CC(=O)Oc1cc2c(c(C)c1OC(C)=O)CC1OC13C2(C)CCC1(C)C2CC(C)(C(=O)O)CCC2(C)CCC13C (stereo not drawn)	1.02
COc1cnc(NS(=O)(=O)c2ccc(N)cc2)nc1	1.01
CNS(=O)(=O)Cc1ccc2[nH]cc(CCN(C)C)c2c1	1.02
O=C(O)c1cc(=O)c2c(Cl)cc(Cl)cc2[nH]1	1.02
CC(=O)[O][Hg][c]1ccccc1	0.0633
COc1c2occc2c(OC)c2c(=O)cc(C)oc12	0.994

----------
Experiment: chemical genetic growth profiling, strain panel (AID 1159580);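 also: tested at 20 µM; growth read once vehicle control cultures reached saturation at 30 °C; 1 = growth at the plate median or of vehicle wells; lower values mean less growth of the strain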
Conditions: S. cerevisiae deletion strains, growth OD, locus YNL128W, strain TEP1, hits give low values
In all, about 5,500 compounds went through this assay and about 2,000 (36%) were called active. Not shown: some 18% with an inconclusive outcome. This is one part of the list.
Quantity: normalized growth

Compound	Quantity	Reported
O=C(O)c1cc([N+](=O)[O-])ccc1NCCCc1ccccc1	normalized growth	0.974
Cc1ccc(N(CC2=NCCN2)c2cccc(O)c2)cc1	normalized growth	0.988
CCCCOC(=O)NS(=O)(=O)c1sc(CC(C)C)cc1-c1ccc(Cn2c(CC)nc3c(C)cc(C)nc32)cc1	normalized growth	1
CC(N)C(O)c1ccc(O)c(O)c1 (centres undefined)	normalized growth	0.996

----------
Test: chemical genetic growth profiling, strain panel (AID 1159580);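 also: tested at 20 µM; growth read once vehicle control cultures reached saturation at 30 °C; 1 = growth at the plate median or of vehicle wells; lower values mean less growth of the strain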
Conditions: S. cerevisiae deletion strains, growth OD, locus YOR144C, strain elg1
Out of some 5,500 compounds screened, about 2,000 (36%) were called active. Not shown: some 18% with an inconclusive outcome. Rule as the data show it: active = normalized growth mostly below about 0.91 (no sharp cut-off); inconclusive = no clear call, values can overlap the other calls; inactive = mostly above about 0.92. Some of the results follow.
Outcomes: True for active, False for inactive

Compound	Label
CN1CCN(CCCN2c3ccccc3Sc3ccc(C(F)(F)F)cc32)CC1	True
OC(c1cc(C(F)(F)F)nc2c(C(F)(F)F)cccc12)C1CCCCN1 (configuration not stated)	False
CC1=NN(c2ccccc2)C(=O)C1	False
CC[C@H]1OC(=O)[C@H](C)[C@@H](O[C@H]2C[C@@](C)(OC)[C@@H](O)[C@H](C)O2)[C@H](C)[C@@H](O[C@@H]2O[C@H](C)C[C@H](N(C)C)[C@H]2O)[C@](C)(O)C[C@@H](C)[C@@H]2N[C@@H](COCCOC)O[C@H]([C@H]2C)[C@]1(C)O	False
COc1cccc(OC)c1C(=O)N[C@@H]1C(=O)N2[C@@H]1SC(C)(C)[C@@H]2C(=O)O	False
OCCN1CCN(CCCN2c3ccccc3Sc3ccc(C(F)(F)F)cc32)CC1	False
CCOc1ccc(C(=O)c2cc(O)c(OC)c(OC)c2O)cc1	False
Cc1ccc(N(CC2=NCCN2)c2cccc(O)c2)cc1	False
CC1(C)C=Cc2cc3ccc(=O)oc3cc2O1	False
CC(=O)O[C@H]1CC[C@]2(C)C3CC[C@@]4(C)C(CC5O[C@@]6(CCC(C)CO6)[C@@H](C)C54)C3CC[C@@H]2C1 (some centres not stated)	False
COc1cc2c(cc1OC)[C@@H]1C(=O)c3ccc4c(c3O[C@@H]1CO2)CC(C(C)C)O4 (some centres not stated)	False
CC(=O)O[C@H]1CC[C@]2(C)C3CC[C@@]4(C)C(CC5O[C@@]6(CCC(C)CO6)[C@@H](C)C54)C3CC[C@H]2C1 (some centres not stated)	False
CC(=O)O[C@@H]1CC[C@]2(C)C3CC[C@]4(C)C(=O)CCC4C3CC[C@H]2C1 (some centres not stated)	False
O=c1c(O)c(-c2ccc(O)c(O)c2)oc2cc(O)ccc12	False
COc1ccc(C(=O)c2ccccc2)c(O)c1O	False
CC1(C)S[C@@H]2[C@H](NC(=O)Cc3ccccc3)C(=O)N2[C@H]1C(=O)O	False
C1CCC(C(CC2CCCCN2)C2CCCCC2)CC1 (configuration not stated)	False
CC1=CC(=O)C2=C(C)CC(O)C3C(C)C(=O)OC3C12 (configuration not stated)	False
CC(=O)O[C@H]1CC[C@]2(C)C3CC(=O)[C@]4(C)C(C(C)=O)=CCC4C3CC[C@H]2C1 (some centres not stated)	False
CC(=O)OCC(=O)[C@@]1(O)CCC2C3CC[C@@H]4C[C@H](OC(C)=O)CC[C@]4(C)C3C(=O)C[C@@]21C (some centres not stated)	False
COc1ccc(C2C(=O)c3ccccc3C2=O)cc1	False
NC1CC1c1ccccc1 (configuration not stated)	False
CC(=O)OCC1=C(C(=O)O)N2C(=O)[C@@H](NC(=O)CCCC(N)C(=O)O)C2SC1 (some centres not stated)	False
CC(NCCC(c1ccccc1)c1ccccc1)c1ccccc1 (configuration not stated)	False
O=C1c2ccccc2C(=O)C1c1ccccc1	False
COc1cc(-c2oc3cc(O)ccc3c(=O)c2O)cc(OC)c1OC	False
Cc1onc(-c2ccccc2Cl)c1C(=O)N[C@@H]1C(=O)N2[C@@H]1SC(C)(C)[C@@H]2C(=O)O	False
